- Measurement notes: in vitro digestibility (lipase hydrolysis, TLC densitometry)
- Type: in vitro ADME, porcine
- Measurement context: pig, pancreatic lipase; in three hours; 37° C., pH 7.1 phosphate buffer with cholic acid; read-out: hydrolyzed (extent of hydrolysis by lipase)
Endpoint: metabolised at 3 h

Any idea what metabolised at 3 h was measured for CCCCCCCC/C=C\CCCCCCCC(=O)OCC(CCCCCCCCCCCC)OC(=O)CCCCCCC/C=C\CCCCCCCC (stereo not shown) [Example 1, 1,2 Tetradecane dioleate] ?
~20%
